Hey, just so you know, these numbers are from patent US5424451A.

For each entry below, report its pIC50 value.
Target: acetylcholinesterase from human red blood cells (Homo sapiens)
Construct: purchased Sigma Chemical; host or cells: human erythrocyte
Sequence (P22303 32-617 isoform P22303-2 limits assumed): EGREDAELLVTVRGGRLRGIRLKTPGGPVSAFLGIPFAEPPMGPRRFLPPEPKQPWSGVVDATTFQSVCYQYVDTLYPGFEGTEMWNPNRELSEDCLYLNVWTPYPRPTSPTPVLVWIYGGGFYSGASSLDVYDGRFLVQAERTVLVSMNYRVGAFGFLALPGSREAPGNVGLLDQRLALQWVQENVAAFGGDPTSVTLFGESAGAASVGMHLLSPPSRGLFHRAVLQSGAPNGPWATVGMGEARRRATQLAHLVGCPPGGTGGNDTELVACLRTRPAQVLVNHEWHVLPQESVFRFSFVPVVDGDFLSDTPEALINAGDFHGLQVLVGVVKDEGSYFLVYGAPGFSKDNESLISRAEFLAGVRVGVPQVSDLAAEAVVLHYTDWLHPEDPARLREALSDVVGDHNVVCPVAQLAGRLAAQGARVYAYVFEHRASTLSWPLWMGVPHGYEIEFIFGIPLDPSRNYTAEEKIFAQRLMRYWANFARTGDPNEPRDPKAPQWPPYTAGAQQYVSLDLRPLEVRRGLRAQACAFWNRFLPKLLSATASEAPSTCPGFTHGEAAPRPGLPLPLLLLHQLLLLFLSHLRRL
Assay: Inhibition of acetylcholinesterase from human erythrocyte (Ellman colorimetric method)
Format: biochemical
Settings: Cholinesterase Inhibition IC50, AChE hRBC, contact time 10'
Numbers only, as −log10 of the molar value.

Check out these entries, answers already filled in.
CN1CC[C@@]2(C)c3cc(OC(=O)NCCCCCCCCN4CCCCC4)ccc3N(C)[C@@H]12 [MF 241, N-piperidinyloctylcarbamoyleseroline]; 7.00
CCCN(CCC)CCCCCCCCCCNC(=O)Oc1ccc2c(c1)[C@]1(C)CCN(C)[C@@H]1N2C [MF 257]; 7.52
CCCN1CCN(CCCCCCCCNC(=O)Oc2ccc3c(c2)[C@]2(C)CCN(C)[C@@H]2N3C)CC1 [MF 261]; 7.70
CN1CC[C@@]2(C)c3cc(OC(=O)NCCCCCCCC(=O)N4CCOCC4)ccc3N(C)[C@@H]12 [MF 269]; 6.92
CN1CC[C@@]2(C)c3cc(OC(=O)NCCCCCCCCCCCCN4CCCCC4)ccc3N(C)[C@@H]12 [MF 249]; 7.30

Quick request: pIC50 for each listed item, please.
1. CN1CC[C@@]2(C)c3cc(OC(=O)NCCCCCCCCN4CCCC4)ccc3N(C)[C@@H]12 [MF 251, N-pyrrolidinyloctylcarbamoyleseroline]
2. COCCN(CCCCCCCCNC(=O)Oc1ccc2c(c1)[C@]1(C)CCN(C)[C@@H]1N2C)CCOC [MF 271]
3. CN1CCN(C(=O)CCCCCNC(=O)Oc2ccc3c(c2)[C@]2(C)CCN(C)[C@@H]2N3C)CC1 [MF 245]
4. CCN(CC)CCCCCCCCNC(=O)Oc1ccc2c(c1)[C@]1(C)CCN(C)[C@@H]1N2C [MF 237]
5. CN(CCCCCCCCNC(=O)Oc1ccc2c(c1)[C@]1(C)CCN(C)[C@@H]1N2C)c1ccccc1 [MF 263]

7.15
7.30
5.26
6.96
7.30

// input: 5 compounds below; output: pIC50 for each
1. CC(=O)N1CCN(CCNC(=O)Oc2ccc3c(c2)[C@]2(C)CCN(C)[C@@H]2N3C)CC1 [MF 246]
2. CN1CCN(CCCCCCCCCCCCNC(=O)Oc2ccc3c(c2)[C@]2(C)CCN(C)[C@@H]2N3C)CC1 [MF 229]
3. CC(C)CN1CCN(CCCCCCCCNC(=O)Oc2ccc3c(c2)[C@]2(C)CCN(C)[C@@H]2N3C)CC1 [MF 270]
4. CCN(CC)CCCCCCCCCCCCNC(=O)Oc1ccc2c(c1)[C@]1(C)CCN(C)[C@@H]1N2C [MF 254]
5. CN1CC[C@@]2(C)c3cc(OC(=O)NCCCCCCCCN4CCOCC4)ccc3N(C)[C@@H]12 [MF 217, N-morpholinyloctylcarbamoyleseroline]

1. 4.70
2. 7.22
3. 7.22
4. 7.30
5. 7.00

* * *

Target: butyrylcholinesterase from human serum (Homo sapiens, UniProt P06276)
Construct: purchased Sigma Chemical; host or cells: human serum
Sequence (P06276 29-602): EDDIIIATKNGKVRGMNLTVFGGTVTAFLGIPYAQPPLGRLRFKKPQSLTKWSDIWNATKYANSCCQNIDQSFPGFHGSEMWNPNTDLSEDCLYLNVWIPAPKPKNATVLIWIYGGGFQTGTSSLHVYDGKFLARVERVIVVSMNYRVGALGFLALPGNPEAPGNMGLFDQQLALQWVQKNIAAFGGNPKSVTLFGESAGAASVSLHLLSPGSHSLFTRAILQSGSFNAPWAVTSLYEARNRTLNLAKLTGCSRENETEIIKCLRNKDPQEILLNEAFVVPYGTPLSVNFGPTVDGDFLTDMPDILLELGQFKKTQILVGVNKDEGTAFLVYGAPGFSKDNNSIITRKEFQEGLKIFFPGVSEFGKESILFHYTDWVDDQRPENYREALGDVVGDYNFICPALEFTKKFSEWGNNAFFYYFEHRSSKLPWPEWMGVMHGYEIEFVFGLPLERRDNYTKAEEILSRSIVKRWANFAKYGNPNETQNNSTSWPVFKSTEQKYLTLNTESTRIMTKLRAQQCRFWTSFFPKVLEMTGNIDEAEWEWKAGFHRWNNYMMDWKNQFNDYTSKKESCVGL
Assay: Inhibition of butyrylcholinesterase from human serum (Ellman colorimetric method)
Type: biochemical
I'd appreciate it if you could supply IC50 values for the items below.
Answers are plain numbers, in nM.

// for each compound below, give its IC50
1. CN1CC[C@@]2(C)c3cc(OC(=O)NCCCCCCCCN4CCOCC4)ccc3N(C)[C@@H]12
2. CN1CC[C@@]2(C)c3cc(OC(=O)NCCN4CCOCC4)ccc3N(C)[C@@H]12
3. CCCCCCCNC(=O)Oc1ccc2c(c1)[C@]1(C)CCN(C)[C@@H]1N2C [MF 201, heptylcarbamic ester of eseroline, reference compound]
4. CN1CC[C@@]2(C)c3cc(OC(=O)NCCCCCCCN4CCOCC4)ccc3N(C)[C@@H]12
5. C[C@@H]1CN(CCCCCCCCNC(=O)Oc2ccc3c(c2)[C@]2(C)CCN(C)[C@@H]2N3C)C[C@H](C)O1
6. CN1CC[C@@]2(C)c3cc(OC(=O)NCCCCCCN4CCOCC4)ccc3N(C)[C@@H]12

[170, 4100, 40, 300, 180, 100]

Please report the recorded IC50 for `CN1CC[C@@]2(C)c3cc(OC(=O)NCCCCCCCCCCCCN4CCOCC4)ccc3N(C)[C@@H]12` .
100
